target: Neurogenic locus notch homolog protein 2 (Homo sapiens) (UniProt Q04721); assay: small molecules binding Notch2 protein – biochemical, small-molecule microarray, 635 nm fluorescence, stem cell growth factors, primary screen (AID 1073); conditions: higher = more signal
Sequence (Q04721 whole entry, looked up): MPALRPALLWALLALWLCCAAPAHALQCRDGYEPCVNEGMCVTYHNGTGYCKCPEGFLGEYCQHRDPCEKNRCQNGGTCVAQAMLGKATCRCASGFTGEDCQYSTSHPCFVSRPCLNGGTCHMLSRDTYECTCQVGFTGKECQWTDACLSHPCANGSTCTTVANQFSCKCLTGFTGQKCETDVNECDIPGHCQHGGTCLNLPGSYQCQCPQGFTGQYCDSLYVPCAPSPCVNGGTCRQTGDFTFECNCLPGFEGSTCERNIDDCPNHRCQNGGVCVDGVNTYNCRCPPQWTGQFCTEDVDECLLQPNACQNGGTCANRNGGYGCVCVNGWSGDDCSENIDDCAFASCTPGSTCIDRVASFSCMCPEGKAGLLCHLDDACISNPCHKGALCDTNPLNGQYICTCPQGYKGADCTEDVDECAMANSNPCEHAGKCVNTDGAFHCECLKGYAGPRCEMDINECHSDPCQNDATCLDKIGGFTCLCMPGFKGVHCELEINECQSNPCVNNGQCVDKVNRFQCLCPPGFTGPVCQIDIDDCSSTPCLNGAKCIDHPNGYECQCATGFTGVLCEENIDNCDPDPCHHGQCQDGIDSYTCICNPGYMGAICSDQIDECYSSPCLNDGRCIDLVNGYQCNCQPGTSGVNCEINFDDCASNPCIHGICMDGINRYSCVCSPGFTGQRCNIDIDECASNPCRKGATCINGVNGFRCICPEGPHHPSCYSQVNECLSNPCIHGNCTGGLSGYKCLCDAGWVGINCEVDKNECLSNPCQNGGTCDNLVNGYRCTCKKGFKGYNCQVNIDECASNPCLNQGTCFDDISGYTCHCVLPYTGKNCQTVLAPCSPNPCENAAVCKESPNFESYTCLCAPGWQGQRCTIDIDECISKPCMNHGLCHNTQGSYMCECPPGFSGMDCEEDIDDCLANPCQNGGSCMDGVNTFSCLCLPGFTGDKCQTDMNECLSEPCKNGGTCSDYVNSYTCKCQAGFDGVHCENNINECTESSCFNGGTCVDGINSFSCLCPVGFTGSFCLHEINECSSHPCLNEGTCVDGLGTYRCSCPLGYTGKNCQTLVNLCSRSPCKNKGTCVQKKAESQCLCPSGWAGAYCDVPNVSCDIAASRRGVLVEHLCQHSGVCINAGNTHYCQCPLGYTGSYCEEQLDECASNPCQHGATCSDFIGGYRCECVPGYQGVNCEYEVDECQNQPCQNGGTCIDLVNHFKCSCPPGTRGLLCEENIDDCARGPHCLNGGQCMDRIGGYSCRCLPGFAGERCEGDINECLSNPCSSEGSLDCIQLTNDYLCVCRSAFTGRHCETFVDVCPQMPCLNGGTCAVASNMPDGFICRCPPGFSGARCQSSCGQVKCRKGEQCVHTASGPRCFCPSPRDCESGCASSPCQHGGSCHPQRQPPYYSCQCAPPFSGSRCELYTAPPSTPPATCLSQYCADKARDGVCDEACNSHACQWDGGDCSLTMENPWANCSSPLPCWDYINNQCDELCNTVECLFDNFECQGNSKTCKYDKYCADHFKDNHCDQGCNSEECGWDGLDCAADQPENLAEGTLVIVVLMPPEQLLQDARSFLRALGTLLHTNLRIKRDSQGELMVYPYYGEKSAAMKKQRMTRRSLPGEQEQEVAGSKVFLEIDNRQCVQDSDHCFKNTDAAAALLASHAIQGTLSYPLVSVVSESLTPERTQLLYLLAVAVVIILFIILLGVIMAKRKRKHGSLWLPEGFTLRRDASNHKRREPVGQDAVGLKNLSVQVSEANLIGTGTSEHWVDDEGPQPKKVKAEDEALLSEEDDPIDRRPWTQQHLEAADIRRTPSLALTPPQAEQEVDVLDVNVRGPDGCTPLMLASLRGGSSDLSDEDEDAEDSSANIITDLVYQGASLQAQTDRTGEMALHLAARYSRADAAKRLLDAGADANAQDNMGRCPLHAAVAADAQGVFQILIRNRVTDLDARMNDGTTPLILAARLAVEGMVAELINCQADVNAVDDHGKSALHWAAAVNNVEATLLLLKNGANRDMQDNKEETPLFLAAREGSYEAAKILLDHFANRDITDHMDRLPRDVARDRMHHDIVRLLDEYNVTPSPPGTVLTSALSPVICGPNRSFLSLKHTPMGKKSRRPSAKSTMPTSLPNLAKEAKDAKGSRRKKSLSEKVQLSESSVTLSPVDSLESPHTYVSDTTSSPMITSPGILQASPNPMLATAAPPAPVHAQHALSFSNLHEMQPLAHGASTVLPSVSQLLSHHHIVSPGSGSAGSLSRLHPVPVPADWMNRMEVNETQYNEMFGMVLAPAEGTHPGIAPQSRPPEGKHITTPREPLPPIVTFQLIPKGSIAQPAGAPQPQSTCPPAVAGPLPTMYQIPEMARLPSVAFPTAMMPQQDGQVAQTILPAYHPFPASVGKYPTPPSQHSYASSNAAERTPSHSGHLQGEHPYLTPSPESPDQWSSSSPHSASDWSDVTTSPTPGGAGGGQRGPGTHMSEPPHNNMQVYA
Answer each item with its documented composite z-score.

Worked examples, 3 molecules total:
| molecule | value |
| --- | --- |
| [N-]=[N+]=Nc1ccccc1C[C@@]1(C(=O)N2CCCCC2)N=C(c2ccc(OCCCO)cc2)O[C@@H]1c1ccccc1 | 1.47 |
| CO[C@H]1O[C@H](CO)[C@@H](OC(=O)Nc2ccc(Oc3ccccc3)cc2)[C@H](OC(=O)Nc2ccc3c(c2)OCO3)[C@@H]1OC(=O)Nc1ccc2c(c1)OCO2 | 1.55 |
| CCOC(=O)C1=C[C@@H](C(C)C)N(S(=O)(=O)c2ccc(C)cc2)[C@H]1c1ccccc1F | 1.65 |

Form entry - test system: Neurogenic locus notch homolog protein 2 (Homo sapiens) (UniProt Q04721); read-out: composite z-score; molecule: CCCCN1CC=CC23O[C@@H]4/C=C\CCCOC(=O)C4[C@H]2C(=O)N(CCCCCO)[C@@H]3C1=O (some centres undefined)
-0.901

###

test: S6 kinase pathway phospho-S6 level changes – cell-based, A549, cytoblot, luminescence, serum-stimulated, primary screen (AID 1158); conditions: 5 h, higher = more signal;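 further: serum-stimulated A549 lung adenocarcinoma cells; signal is phosphorylated S6 detected by cytoblot immunostaining with HRP secondary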
readout.kind: z-score
Answers are plain numbers.

Your task in this section: give z-score for each listed record.
1. CCCC=C(CCC)[C@@H](NC(=O)OCC(C)C)c1ccccc1
2. COC(=O)[C@@]1(Cc2ccccc2)[C@H]2c3cc(C(=O)N4CCCC4)n(Cc4ccc(O)c(OC)c4)c3C[C@H]2CN1C(=O)c1ccccc1
3. O=C1O[C@@H](c2ccccc2)[C@@H](c2ccccc2)N2[C@@H](c3ccccc3OCCO)[C@]3(C(=O)Nc4ccccc43)[C@@H](C(=O)O)[C@H]12
4. O=C1OCC=C[C@H]2OC34C=CCN(Cn5nnc6ccccc65)C(=O)[C@H]3N(CCCCCO)C(=O)[C@@H]4[C@@H]12 (some centres undefined)

1: 1.44; 2: -0.347; 3: 0.128; 4: -0.433

###

Provide the recorded z-score for the entries that follow.
test: JC-1 mitochondrial signal, unstimulated MM1S myeloma – cell-based, JC-1 fluorescence, 24 h, 100 nL compound, profiling panel (AID 1170); details: MM1S mitochondrial potential, higher = more signal; further: test concentration not given here
One number for each entry.

Okay, here is my list. What is z-score for each of these?
1. CC(C)NC(=O)[C@@]1(Cc2ccccc2I)c2ccccc2C(=O)N(Cc2ccccc2Cl)[C@H]1c1ccc(CO)cc1
2. CC(C)[Si](C#CCCCC#N)(Oc1ccccc1Br)C(C)C
3. COc1cc(CO)cc(I)c1O[C@H]1C=C(C(=O)NCCO)C[C@@H](NC[C@@H]2CCCO2)[C@@H]1O
4. [N-]=[N+]=Nc1ccccc1C[C@@]1(C(=O)N2CCCCC2)N=C(c2ccc(OCCCO)cc2)O[C@@H]1c1ccccc1N=[N+]=[N-]

-0.756
0.2
-1.9
-2.21

###

target: Calmodulin-1 (Homo sapiens) (UniProt P0DP23); assay: small molecules binding Ca-loaded calmodulin-1 – biochemical, small-molecule microarray, Cy5-labelled CALM1, plus calcium, artefact control for SMM control-protein annotation, profiling panel (AID 1112); details: Cy5-CALM1 binding fluorescence, higher = more signal;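 further: score merges spot fluorescence with signal to noise from triplicate slides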
Use fulfilled when the recorded composite z-score is no lower than 0.1; use not fulfilled when it is lower.

These recorded examples may help you get a feel for the data.
| compound | group.label |
| --- | --- |
| O=C1N(CCS(=O)(=O)c2ccccc2)c2ccccc2[C@@H]2OC(c3ccc(OCCCO)cc3)=N[C@]12Cc1ccccc1 | not fulfilled |
| O=C(O)[C@H](Cc1ccccc1)n1cc(-c2ccccc2)nn1 | not fulfilled |

Entry `C=CC[C@@]1(C(=O)N2CCCCC2)N=C(c2ccc(OCCCO)cc2)O[C@@H]1c1ccccc1N=[N+]=[N-]` : is its composite z-score no less than 0.1?
fulfilled

Is the recorded value of composite z-score equal to or greater than 0.1 for this compound? OCC1C=C(/C=C/c2ccccc2)CN1Cc1ccccc1Br (centres undefined)
not fulfilled

Has `COc1cc2c(cc1OC)CN(C(=O)[C@H]1[C@@H]3C(=O)O[C@@H](c4ccccc4)[C@@H](c4ccccc4)N3[C@@H](c3ccccc3OCCO)[C@]13C(=O)Nc1ccc(C#CCCO)cc13)CC2` a recorded composite z-score greater than or equal to 0.1?
not fulfilled

Given CC(CO)N1C(=O)[C@@H]2C3C(=O)OCCC/C=C\[C@H]3OC23C=CCN(CCN2CCOCC2)C(=O)[C@@H]13 (some centres undefined) , state whether its composite z-score is at least 0.1.
not fulfilled

Hello, I need to know if `COc1ccc(CCNC(=O)[C@@]2(c3ccc([N+](=O)[O-])cc3)CC(=O)N(CC34CC5CC(CC(C5)C3)C4)[C@@H]2c2ccc(CO)cc2I)cc1` has measured composite z-score not below 0.1. Thanks!
not fulfilled

Identify whether the reported composite z-score of the following compound is 0.1 or greater: `C=C(CCCC)C(=O)CC[C@H](OC(=O)c1cccnc1)c1ccc(OCCO)cc1`
not fulfilled

Quick check: does `COC(=O)[C@@]1(Cc2ccc(OC)cc2)[C@H]2c3cc(C(=O)N(C)C)n(Cc4ccc(C(F)(F)F)nc4)c3C[C@H]2CN1C(=O)c1ccccc1` have composite z-score greater than or equal to 0.1?
fulfilled

Is the recorded value of composite z-score equal to or greater than 0.1 for this compound? `COCCOC(=O)N1C(=O)[C@@]2(c3ccccc31)[C@H](c1ccc(OCCO)cc1)N1[C@H](c3ccccc3)[C@H](c3ccccc3)OC(=O)[C@H]1[C@@H]2C(=O)N1CCc2cc(OC)c(OC)cc2C1`
not fulfilled

Check if composite z-score >= 0.1 (inclusive). Item: `CCCC[C@H]1C[C@@H]1[C@@H]1N(P(=O)(c2ccccc2)c2ccccc2)C[C@@](O)(c2ccccc2)CC12CC2`
fulfilled

Assess whether reported composite z-score for `CC(C)CN1C(=O)[C@@]2(c3ccc([N+](=O)[O-])cc3)CC(=O)N(C3CCCCC3)[C@@H]2c2ccc(CO)cc21` sits at 0.1 or higher.
not fulfilled

Dear colleague, could you confirm whether `O=C1O[C@@H](c2ccccc2)[C@@H](c2ccccc2)N2[C@@H](c3ccc(OCCO)cc3)[C@]3(C(=O)Nc4ccc(C#CC5=CCCCC5)cc43)[C@@H](C(=O)N3CCCCCCC3)[C@H]12` has composite z-score at or above 0.1?
fulfilled

Decide: is the reported value of composite z-score for `CC(C)NC(=O)[C@@]1(Cc2ccccc2I)c2ccccc2C(=O)N(Cc2ccccc2Cl)[C@H]1c1ccc(CO)cc1` equal to or greater than 0.1?
not fulfilled

Determine whether measured composite z-score meets or exceeds 0.1 for `O[C@@H](Cc1ccccc1)[C@@H](/C=C/C1CC1)NCc1cccc(Cl)c1`
not fulfilled

###

assay: viability profiling in MM1S myeloma cells – cell-based, resazurin fluorescence, basal, 24 h, PK04 Diversity Set, profiling panel (AID 1174); conditions: higher = more signal, called active from +8 up or from −8 down;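 further: MM1S multiple myeloma cell line; test concentration not given here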
I would appreciate it if you labelled entries Y when z-score is -0.4 or higher, otherwise N.

| molecule | group.label |
| --- | --- |
| COCCOC(=O)N1C(=O)[C@@]2(c3cc(C#CCCO)ccc31)[C@H](c1ccc(OCCO)cc1)N1[C@H](c3ccccc3)[C@H](c3ccccc3)OC(=O)[C@H]1[C@@H]2C(N)=O | Y |
| O=C1O[C@H](c2ccccc2)[C@H](c2ccccc2)N2[C@H]1[C@@H](C(=O)N1CCN(c3ncccn3)CC1)[C@]1(C(=O)Nc3ccc(C#CC4=CCCCC4)cc31)[C@H]2c1ccccc1OCCO | N |
| O=C(O)[C@@]1(CCS(=O)(=O)c2ccccc2)N=C(c2ccc(OCCCO)cc2)O[C@H]1c1ccccc1 | Y |
| CC(C)[C@@H](C(=O)O)n1cc(C2(O)CCCCC2)nn1 | Y |
| OB1C=CCC(CCc2ccccc2)O1 (centres undefined) | Y |

Entry `CC(C)NC(=O)[C@@]1(Cc2ccccc2I)c2ccccc2C(=O)N(Cc2ccccc2Cl)[C@H]1c1ccc(CO)cc1` : is its z-score no less than -0.4?
Y

Does the reported z-score for `CC(C)OC(=O)C=C1C[C@@H](c2cccc(Cl)c2)O[C@@H](c2cccc(Cl)c2)O1` fall at or above the -0.4 mark?
Y

Could you please find out whether `COC(=O)C(CC#Cc1ccc2c(c1)[C@]1(C(=O)N2)[C@H](c2ccccc2OCCO)N2[C@H](c3ccccc3)[C@H](c3ccccc3)OC(=O)[C@H]2[C@@H]1C(=O)O)C(=O)OC` has z-score that meets -0.4 or exceeds it?
Y

Is the recorded value of z-score equal to or greater than -0.4 for this molecule? `C=CC[C@]1(C(=O)N2CCOCC2)N=C(c2ccc(OCCCO)cc2)O[C@H]1c1ccccc1N=[N+]=[N-]`
N

Dear colleague, could you confirm whether `CO[C@H]1O[C@H](CO)[C@@H](OC(=O)Nc2ccccc2-c2ccccc2)[C@H](OC(=O)Nc2ccccc2-c2ccccc2)[C@@H]1OC(=O)Nc1ccccc1-c1ccccc1` has z-score at or above -0.4?
Y

Is reported z-score greater than or equal to -0.4 here: `COC(=O)c1c2oc(c1C(=O)OC)C(=O)NC1(CCCCC1)c1cn(nn1)C[C@H](Cc1ccccc1)NC(=O)N[C@H](CO)CC2`
Y

Please tell me: is the molecule C=CCC(OC(C)=O)[C@@H]1[C@@H](N(Cc2cc3ccccc3o2)C(=O)Cc2ccc(OC)cc2)c2cc(OCCCO)ccc2N1C(=O)c1ccc2ccccc2c1 (some centres undefined) at or over -0.4 in terms of z-score?
Y

Hi, just wondering whether `NC(=O)[C@@H]1[C@H]2C(=O)O[C@H](c3ccccc3)[C@H](c3ccccc3)N2[C@H](c2ccc(OCCO)cc2)[C@@]12C(=O)Nc1ccc(C#CC3=CCCCC3)cc12` shows z-score of -0.4 or higher.
N

Hi, just wondering whether `CCCCCCc1nc(-c2ccc(-c3ccc(Cl)c(Cl)c3)o2)c(C)c2c1[Si](C(C)C)(C(C)C)OC2` shows z-score of -0.4 or higher.
N

Does the reported z-score for O=C1C2C=CC(C(O)c3ccc4c(c3)OCO4)N(Nc3ccc([N+](=O)[O-])cc3)C2C(=O)N1c1ccccc1 (centres undefined) fall at or above the -0.4 mark?
Y

Could you please find out whether `COCCOC(=O)N1C(=O)[C@@]2(c3ccccc31)[C@H](C(N)=O)[C@H]1C(=O)O[C@H](c3ccccc3)[C@H](c3ccccc3)N1[C@@H]2c1ccc(O)cc1` has z-score that meets -0.4 or exceeds it?
N

Is the recorded value of z-score equal to or greater than -0.4 for this molecule? `CC(C)(C)OC(=O)CC[C@]1(C(=O)NCCN2CCOCC2)COC(c2ccc(OCCCO)cc2)=N1`
Y

Answer whether z-score of COc1cc2c(cc1O)C(c1cccs1)N(Cc1ccc([N+](=O)[O-])o1)CC2 (centres undefined) is greater than or equal to -0.4.
Y

Item `O=C(CS)NCCCCCNC(=O)[C@@H]1C[C@@H]2C(=O)NCC(=O)N2[C@@H]1c1ccc(O)cc1` with z-score of -0.4 or above?
N
